test system: Enterococcus faecalis; assay: Antimicrobial activity against Enterococcus faecalis ES01 harboring erythromycin-resistance rRNA methylase B and vanB-type vancomycin-resistance locus assessed as inhibition of visible growth of bacteria incubated for 20 hrs by broth microdilution method; assay type: functional
Exercise: state measured MIC for each of the compounds provided.

In the examples that follow, each entry is paired with its recorded MIC.
Query string: What measured MIC goes with `CCC[C@@H]1C[C@@H](C(=O)N[C@@H]([C@H]2O[C@H](SC)[C@H](O)[C@@H](O)[C@H]2O)[C@H](C)Cl)N(C)C1` ?
Result string: > 32 µg/mL

Query string: What measured MIC goes with `O=C(O)c1cn(C2CC2)c2cc(N3CCNCC3)c(F)cc2c1=O` ?
Result string: > 32 µg/mL

Proceeding to the next compound to report its MIC.
Query string: What measured MIC goes with `CO[C@@]1(NC(=O)Cc2cccs2)C(=O)N2C(C(=O)O)=C(COC(N)=O)CS[C@@H]21` ?
Result string: > 32 µg/mL

* * *

test system: Staphylococcus aureus; test: microbe, parasite or virus in culture; assay type: functional; details: M147-2, time 20 hrs
Description: Antimicrobial activity against Staphylococcus aureus M147-2 harboring erythromycin resistance rRNA methylase B, tetracycline efflux protein L and chloramphenicol-florfenicol resistance methylase assessed as inhibition of visible growth of bacteria incubated for 20 hrs by broth microdilution method
Exercise: state measured MIC for each of the compounds provided.

Query string: Lookup: MIC / Staphylococcus aureus / C[C@H]1c2cccc(O)c2C(=O)C2=C(O)[C@]3(O)C(=O)C(C(N)=O)=C(O)[C@@H](N(C)C)[C@@H]3[C@@H](O)[C@@H]21 [DOXYCYCLINE ANHYDROUS]
Result string: > 32 µg/mL

Query string: Lookup: MIC / Staphylococcus aureus / `CCC[C@@H]1C[C@@H](C(=O)N[C@@H]([C@H]2O[C@H](SC)[C@H](O)[C@@H](O)[C@H]2O)[C@H](C)Cl)N(C)C1`
Result string: > 32 µg/mL

Further cases:
Query string: Lookup: MIC / Staphylococcus aureus / `CC[C@H]1OC(=O)[C@H](C)[C@@H](O[C@H]2C[C@@](C)(OC)[C@@H](O)[C@H](C)O2)[C@H](C)[C@@H](O[C@@H]2O[C@H](C)C[C@H](N(C)C)[C@H]2O)[C@](C)(O)C[C@@H](C)C(=O)[C@H](C)[C@@H](O)[C@]1(C)O`
Result string: > 32 µg/mL
